The reported measurements were obtained from PubChem BioAssay (Tox21).

- Protocol text: Nuclear factor erythroid 2-related factor 2/antioxidant responsive element (Nrf2/ARE) small molecule agonists: qHTS cell viability counter screen in human keratinocytes (AID 1919968); also: nearly all actives have a fitted effect of over 55% in size
- Assay conditions: KeratinoSens HaCaT ARE cells viability, CellTiter-Fluor, 24 h; series mostly up to 92.4 µM
Results filed as inconclusive are left out. Active and inactive are the calls of the source. Calls follow the shape of the dose curve; as a rule, active = well fitted cell-killing curve with a large enough effect in the repeat runs; inconclusive = weak or mixed curves, or effect the other way; inactive = flat fitted curve, though single readings scatter.
Your reply should match one of these outcome classes. Y for active, N for inactive

Ask: Each compound tested received a call. Report the one for `C=CC(=O)OCCOCCOC(=O)C=C` .
Result: Y

Ask: Each compound tested received a call. Report the one for `C=CCn1c(=O)n(CC=C)c(=O)n(CC=C)c1=O` .
Result: N

Ask: Each compound tested received a call. Report the one for O=C(O)C(Cc1cc(I)c(O)c(I)c1)c1ccccc1 (centres undefined) .
Result: N

Ask: Each compound tested received a call. Report the one for `CCCCOc1cc(C(=O)OCCN(CC)CC)ccc1N` .
Result: N

Ask: Each compound tested received a call. Report the one for `COc1cc(OC)cc(OC)c1` .
Result: N

Ask: Each compound tested received a call. Report the one for O=C1OC(OC(=O)c2cccnc2Nc2cccc(C(F)(F)F)c2)c2ccccc21 (centres undefined) .
Result: N

Ask: Each compound tested received a call. Report the one for `Nc1cccc(S(=O)(=O)O)c1` .
Result: N

Ask: Each compound tested received a call. Report the one for O=C(OC1C[C@H]2CC[C@@H](C1)[N+]21CCCC1)C(O)(c1ccccc1)c1ccccc1 (some centres undefined) .
Result: N

Ask: Each compound tested received a call. Report the one for `CCOC(=O)O[C@H](C)OC(=O)c1ccc2c(c1)cc(C(=O)NC1CCN(C(C)C)CC1)n2Cc1cc(-c2ccc(Cl)s2)on1` .
Result: Y

Ask: Each compound tested received a call. Report the one for `Cc1ccc2nc(N)[nH]c(=O)c2c1Sc1ccncc1` .
Result: N

Ask: Each compound tested received a call. Report the one for O=C(CCN1CCC(c2ccccc2)C1)c1ccc2c(c1)OCCO2 (centres undefined) .
Result: N

Ask: Each compound tested received a call. Report the one for CN1Cc2cc(C(=O)N3CCC(C4CCNCC4)CC3)ccc2NC(CC(=O)O)C1=O (centres undefined) .
Result: N

Ask: Each compound tested received a call. Report the one for `CCCCCCCCCCCCCCCCOS(=O)(=O)O` .
Result: N

Ask: Each compound tested received a call. Report the one for `NS(=O)(=O)c1cc(C(=O)NN2C[C@H]3[C@H]4CCC(C4)[C@H]3C2)ccc1Cl` .
Result: N

Ask: Each compound tested received a call. Report the one for `Nc1ccc(C(=O)N2CC3CC(CN(Cc4ccccc4)C3)C2)cc1` .
Result: N

Ask: Each compound tested received a call. Report the one for `CCc1cccc(C)c1` .
Result: N

Ask: Each compound tested received a call. Report the one for `CCCN(CCC)CCc1cccc2c1CC(=O)N2` .
Result: N

Ask: Each compound tested received a call. Report the one for `[O-][n+]1cccc(/C(Cl)=N/OC[C@@H](O)CN2CCCCC2)c1` .
Result: N

Ask: Each compound tested received a call. Report the one for `CN(C)CC/C=C1/c2ccccc2COc2ccc(CC(=O)O)cc21` .
Result: N

Ask: Each compound tested received a call. Report the one for `Nc1nc(CC(=O)O)cs1` .
Result: N

Ask: Each compound tested received a call. Report the one for `CCOC(=O)[C@H](CCc1ccccc1)N[C@@H](C)C(=O)N1Cc2cc(OC)c(OC)cc2C[C@H]1C(=O)O` .
Result: N

Ask: Each compound tested received a call. Report the one for `CC1(C)C(=O)C(C)(C)C1=O` .
Result: N

Ask: Each compound tested received a call. Report the one for `C[C@H]1O[C@H](O[C@H]2[C@H](O)[C@@H](O)[C@@H](O[C@H]3[C@H](O)[C@@H](O)[C@H](O)O[C@@H]3CO)O[C@@H]2CO)[C@H](O)[C@@H](O)[C@@H]1N[C@H]1C=C(CO)[C@@H](O)[C@H](O)[C@H]1O` .
Result: N

Ask: Each compound tested received a call. Report the one for `COc1cc(C(=O)NCCCCCC(=O)O)cc(OC)c1OC` .
Result: N

Ask: Each compound tested received a call. Report the one for `CCN(CC)CCOC(=O)C1(c2ccccc2)CCCC1` .
Result: N

Ask: Each compound tested received a call. Report the one for Cc1nccn1CC1CCc2c(c3ccccc3n2C)C1=O (centres undefined) .
Result: N

Ask: Each compound tested received a call. Report the one for FC(F)OC(Cl)C(F)(F)F (centres undefined) .
Result: N

Ask: Each compound tested received a call. Report the one for `O=C(O)Cc1c(Cl)ccc(Cl)c1Cl` .
Result: N

Ask: Each compound tested received a call. Report the one for `CC[C@H](NC(C)C)[C@H](O)c1ccc(O)c2[nH]c(=O)ccc12` .
Result: N

Ask: Each compound tested received a call. Report the one for `CN(C)Cc1ccccc1` .
Result: N

Ask: Each compound tested received a call. Report the one for CCC(C)(CCC(C)C)C(=O)[O][Sn]([CH3])([CH3])[O]C(=O)C(C)(CC)CCC(C)C (centres undefined) .
Result: N

Ask: Each compound tested received a call. Report the one for CCOCC(O)COc1ccc(NC(=O)CC[S+](C)C)cc1 (centres undefined) .
Result: N

Ask: Each compound tested received a call. Report the one for `CCOC(=O)C(=O)CCc1ccccc1` .
Result: N

Ask: Each compound tested received a call. Report the one for `CC(C)(C)OC(=O)N1C[C@@H](F)C[C@H]1C(=O)O` .
Result: N

Ask: Each compound tested received a call. Report the one for Nc1ccc(C(=O)OCC(O)CO)cc1 (centres undefined) .
Result: N

Ask: Each compound tested received a call. Report the one for `C=C(C)c1ccccc1` .
Result: N

Ask: Each compound tested received a call. Report the one for `CCn1c2ccccc2c2cc([N+](=O)[O-])ccc21` .
Result: N

Ask: Each compound tested received a call. Report the one for CCCCC(CC)C(=O)OC(C)C (centres undefined) .
Result: N

Ask: Each compound tested received a call. Report the one for `CC(=O)NC(=O)c1ccccc1O` .
Result: N

Ask: Each compound tested received a call. Report the one for `CCCCCCCCCC#N` .
Result: N

Ask: Each compound tested received a call. Report the one for `COc1cc(NS(=O)(=O)c2ccc(N)cc2)nc(OC)n1` .
Result: N

Ask: Each compound tested received a call. Report the one for `CCOc1cc([N+](=O)[O-])c(OCC)cc1N1CCOCC1` .
Result: N

Ask: Each compound tested received a call. Report the one for `NCCCCCC(=O)O` .
Result: N

Ask: Each compound tested received a call. Report the one for C[N+]1(CC2COC(c3ccccc3)(C3CCCCC3)O2)CCCCC1 (centres undefined) .
Result: N
